measurementTarget: T1, human IL-13 variant (R130Q) (human, UniProt P35225 35-146)
T1 construct: called R110Q in the assay descriptions (mature numbering); also called h IL-13v; hIL-13v
T1 sequence (P35225 35-146 limits assumed, stated change not applied): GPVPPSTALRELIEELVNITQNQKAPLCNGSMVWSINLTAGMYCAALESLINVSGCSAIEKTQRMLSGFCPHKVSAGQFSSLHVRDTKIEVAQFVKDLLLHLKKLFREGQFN
experimentNotes: SPR (Biacore), mAb captured, IL-13 as analyte
assayReadout: koff
Dear colleague, please send the value followed by its unit.

Sample answers from the record:
[[record]]
binder = "6C8 (antibody, V domains shown) VH: QVQLKESGPGLVAPSQSLSITCTVSEFSLTGSSVNWVRQPPGKGLEWLGMIWGDGRIDYNSALKSRLSISKDNSKSQVFLKMNSLQTDDTARYYCARDGYYPYAMNYWGQGTSVTVSS VL: NIVLTQSPASLAVSLGQRATISCRASESVDSYGNSFMHWYQQKPGQPPKLLIYLASNLESGVPARFSGSGSRADFTLTIDPVEADDAATYYCQQNNENPRTFGGGTKLEIKR"
assayreadout = "koff"
result = "0.000394 s⁻¹"

[[record]]
binder = "5F1 (antibody, V domains shown) VH: QVQLQQSGAELARPGTSVKLSCKASGYTFTTYGISWVKQRTGQGLEWIGEIYPGSYNTYYNEKFRGKATLTADKSSSTAYMQLSSLTSEDSAVYFCSRWRTSYFSDYGYFDYWGQGTTLTVSS VL: DVVMTQTPLSLPVSLGDQASISCRSSQSLVHSHGNTYLHWYLQKPGQSPKLLIYTVSNRFSGVPDRFSGSGSGTDFTLKISRVEAEDLGVYFCSQSTHVPYTFGGGTKLEIKR"
assayreadout = "koff"
result = "1.57e-05 s⁻¹"


Next binder, please.
Incoming: Endpoint output: koff of 22D10 (antibody, V domains shown) VH: QVQLQQSGDDLVKPGASVKLSCKASGYTFTSYWINWIKQRPGQGLEWIGHIAPGSGETYDNEMFKDKAKLTVDTSSSTAYIHLSSLSSEDSAVYFCARGSFTFFYAMDYWGQGTSVTVSS VL: DVLMTQTPLSLPVSLGDQASISCRSSQNIVHSNGKTYLEWYLQRPGQSPKLLIYKVSNRFSGVPDRFSGSGSGTDFTLKISRVEAEDLGVYYCFQGSHVPYTFGGGTKLEIKR . Value?
Outgoing: 0.000155 s⁻¹
